Every entry's value here was drawn from PubChem BioAssay AID504832.

Assay: Primary qHTS for delayed death inhibitors of the malarial parasite plastid, 48 hour incubation
Settings: P. falciparum luciferase growth in erythrocytes; series mostly up to 28.7 µM
Screen size: about 310,000 compounds; about 18,000 (5.8%) were called active. Another 22% or so got no clear call; they are omitted. Calls follow the shape of the dose curve; as a rule, active = well fitted inhibition curve with a large enough effect; inconclusive = small, poorly fitted or top-dose-only effect, or another doubt; inactive = no such curve, though single readings can be large or run the other way. What follows is part of a selection rich in actives, with near analogues and random picks from the rest.
The reply should name one outcome from yes (active), no (inactive)

[in] Please share the test call associated with Cc1ccc(-c2nnc(Nc3ccc(C(=O)N(C)C)cc3)c3ccccc23)cc1S(N)(=O)=O .
[out] yes

[in] Please share the test call associated with CCOc1ccc(CCNC(=O)CCc2nnc3ccc(N4CCCC4)nn23)cc1OCC .
[out] no

[in] Please share the test call associated with Fc1ccc2[nH]c3c(N4CCSCC4)ncnc3c2c1 .
[out] yes

[in] Please share the test call associated with c1ccc2c(c1)CCc1snnc1-2 .
[out] no

[in] Please share the test call associated with COc1ccc(CNC(=O)COc2ccccc2C(=O)c2cnn(-c3ccccc3)c2)cc1OC .
[out] no

[in] Please share the test call associated with CCCOc1ccc(NC(=O)C2CCCNC2=O)cc1 (stereo unspecified) .
[out] no

[in] Please share the test call associated with CCN1CCCC1CNc1ncnc2c1[nH]c1ccc(F)cc12 (stereo unspecified) .
[out] yes

[in] Please share the test call associated with COc1ccc(N=Nc2c(-c3ccc(OC)cc3)[nH]oc2=O)cc1 .
[out] no

[in] Please share the test call associated with COc1ccc(NC(=O)CCn2ccnc2)c(OC)c1 .
[out] no

[in] Please share the test call associated with COc1ccc(-c2cc(C(=O)N3CCN(Cc4ccc5c(c4)OCO5)CC3)on2)cc1OC .
[out] no

[in] Please share the test call associated with Cc1ccn2c(=O)nc(SCC(=O)NCc3ccc(F)cc3)nc2c1 .
[out] no
